Biological target: MAO-A (Rattus norvegicus, UniProt P21396)
Construct: mitochondorial fraction obtained from cerebral tissue of rats; from tissue; host or cells: rat cerebral tissue, mitochondrial fraction
Sequence (P21396 1-526): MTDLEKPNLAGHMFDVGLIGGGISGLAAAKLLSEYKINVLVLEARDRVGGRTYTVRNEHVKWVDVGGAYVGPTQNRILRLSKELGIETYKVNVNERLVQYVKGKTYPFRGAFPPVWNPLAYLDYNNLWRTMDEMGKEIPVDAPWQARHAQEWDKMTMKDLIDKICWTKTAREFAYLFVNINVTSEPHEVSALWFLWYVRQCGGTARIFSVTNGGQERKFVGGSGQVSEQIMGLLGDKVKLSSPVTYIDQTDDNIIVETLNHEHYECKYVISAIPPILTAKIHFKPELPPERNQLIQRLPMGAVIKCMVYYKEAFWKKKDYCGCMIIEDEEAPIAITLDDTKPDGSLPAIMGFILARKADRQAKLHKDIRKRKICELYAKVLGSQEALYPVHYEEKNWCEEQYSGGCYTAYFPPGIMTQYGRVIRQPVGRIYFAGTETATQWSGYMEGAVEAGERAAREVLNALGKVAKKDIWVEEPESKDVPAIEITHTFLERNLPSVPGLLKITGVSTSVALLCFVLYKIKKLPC
Experiment: Inhibitory effect against MAO-A activity of cerebral mitochondrial fraction from rat (in vitro)
Assay type: biochemical
Conditions: 10^-7 M test compound, serotonin substrate, read-out: Inhibitory rate (%) against MAO-A activity
Readout type: inhibition at 0.1 µM (%)
API: value field is a number in %; no unit string.

Param readout= inhibition at 0.1 µM; system= MAO-A (Rattus norvegicus, UniProt P21396); entry= COCC1CN(c2ccc3cc(OC(C)C)ccc3c2)C(=O)O1 (centres unmarked) ; returns value.
98.8

Query the reported inhibition at 0.1 µM for MAO-A (Rattus norvegicus, UniProt P21396); item: COCC1CN(c2ccc3cc(OCCCC#N)ccc3c2)C(=O)O1 (centres unmarked)
95.5

Hi! What's the reported inhibition at 0.1 µM for C=CCOc1ccc2cc(N3CC(COC)OC3=O)ccc2c1 (centres unmarked) on MAO-A (Rattus norvegicus, UniProt P21396)?
96.8

Notebook entry, MAO-A (Rattus norvegicus, UniProt P21396) assay: inhibition at 0.1 µM of COCC1CN(c2ccc3cc(OCCC#N)ccc3c2)C(=O)O1 (centres unmarked) = ?
98.1

Find inhibition at 0.1 µM (MAO-A (Rattus norvegicus, UniProt P21396)) for the entry COCC1CN(c2ccc3cc(OCCCO)ccc3c2)C(=O)O1 (centres unmarked)
91.7

Form field - read-out: inhibition at 0.1 µM; system: MAO-A (Rattus norvegicus, UniProt P21396); submitted item: COCC1CN(c2ccc3cc(OCC4CC4)ccc3c2)C(=O)O1 (centres unmarked)
93.5

Can you look up inhibition at 0.1 µM on MAO-A (Rattus norvegicus, UniProt P21396) for COCC1CN(c2ccc3cc(OC(C)=O)ccc3c2)C(=O)O1 (centres unmarked) ?
76.6

Under MAO-A (Rattus norvegicus, UniProt P21396): inhibition at 0.1 µM value of COCC1CN(c2ccc3ccccc3c2)C(=O)O1 (centres unmarked) ?
78.4
